# assay procedure: DHM solubility in water
# Type: physicochemical
# recorded conditions: water, 25 °C, water, 25° C. (room temperature), read-out: Solubility
endpoint: solubility (µg/mL)
Entry rule: numbers only, all in µg/mL.

Given item O=C1c2c(O)cc(O)cc2O[C@H](c2cc(O)c(O)c(O)c2)[C@H]1O [DHM] , the value recorded as its solubility is 700

====

# assay procedure: DHM solubility in water
# Type: physicochemical
# recorded conditions: water, 100 °C, water, 100° C. (hot water), read-out: Solubility
endpoint: solubility (mg/mL)
State the answer as a number, implicitly in mg/mL.

Memo: O=C1c2c(O)cc(O)cc2O[C@H](c2cc(O)c(O)c(O)c2)[C@H]1O , reported solubility: 16

====

# assay procedure: physchem
# recorded conditions: 25° C.
endpoint: solubility (µg/mL)
Report only the number, with the unit µg/mL understood.

Entry O=C1c2c(O)cc(O)cc2O[C@H](c2cc(O)c(O)c(O)c2)[C@H]1O ; solubility = 700

# credit: patent US20200246485A1
